Molecular target: Cellular tumor antigen p53 (Homo sapiens) (UniProt P04637)
Sequence (P04637 whole entry, looked up): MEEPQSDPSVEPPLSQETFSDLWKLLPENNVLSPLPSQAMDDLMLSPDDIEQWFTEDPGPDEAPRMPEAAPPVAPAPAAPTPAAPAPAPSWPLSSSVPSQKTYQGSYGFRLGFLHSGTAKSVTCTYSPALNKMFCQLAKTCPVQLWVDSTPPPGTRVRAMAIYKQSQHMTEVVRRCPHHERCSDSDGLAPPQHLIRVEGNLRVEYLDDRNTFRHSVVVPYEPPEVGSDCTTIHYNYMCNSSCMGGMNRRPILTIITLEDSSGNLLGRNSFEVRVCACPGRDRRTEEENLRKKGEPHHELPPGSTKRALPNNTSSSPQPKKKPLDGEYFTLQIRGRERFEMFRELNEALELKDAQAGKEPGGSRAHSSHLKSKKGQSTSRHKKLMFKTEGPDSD
Experiment: TOX21_p53_BLA_p4_ratio: Tox21 HCT-116 p53 Agonism Beta-lactamase Assay, Ratio, Phase 4 (AID 2283601)
Records with an inconclusive call do not appear. Calls of active or inactive are those of the source. Rule for the calls: active = hit-call score of the fitted dose curve at least 0.9, where 1 is the maximum; inconclusive = response in the unintended direction; inactive = score below 0.9.
Your reply should match one of these outcome classes. TRUE = active, FALSE = inactive

Here are 5 compounds together with their reported answers.
{"compound": "CCCCCCCCCCOCC(O)CN (stereo not given)", "tested-system": "Cellular tumor antigen p53 (Homo sapiens) (UniProt P04637)", "category-label": "TRUE"}
{"compound": "CCN1CCCC1CNC(=O)c1cc(S(=O)(=O)CC)ccc1OC (stereo not given)", "tested-system": "Cellular tumor antigen p53 (Homo sapiens) (UniProt P04637)", "category-label": "FALSE"}
{"compound": "FC(F)(F)c1ccc(Cl)cc1Cl", "tested-system": "Cellular tumor antigen p53 (Homo sapiens) (UniProt P04637)", "category-label": "FALSE"}
{"compound": "c1ccc([C@H]2CN3CCSC3=N2)cc1", "tested-system": "Cellular tumor antigen p53 (Homo sapiens) (UniProt P04637)", "category-label": "FALSE"}
{"compound": "O=C(Nc1ccc(S(=O)(=O)N2CCOCC2)cc1)c1cc(Cl)ccc1NS(=O)(=O)c1ccc(Cl)s1", "tested-system": "Cellular tumor antigen p53 (Homo sapiens) (UniProt P04637)", "category-label": "TRUE"}

Request: Assay result, entry "O=C(O)c1cc(N=Nc2ccc([N+](=O)[O-])cc2)ccc1O" — outcome?
Result: FALSE

Request: Assay result, entry "O=C(O)c1ccc(OCCn2ccnc2)cc1" — outcome?
Result: FALSE

* * *

Test: CCTE_Shafer_MEA_acute_interburst_interval_mean: CCTE's Neural Acute Assay for Mean Interburst Interval, Shafer Lab (AID 2284016);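 note: percent change of mean interburst interval versus each well's own pre-dose baseline; curves fitted for decrease in interburst interval relative to DMSO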
The source made the active and inactive calls. How the source made its calls: active means hit-call score of the fitted dose curve at least 0.9, where 1 is the maximum; inactive means score below 0.9.
endpoint: outcome

{"cpd-smiles": "CN(C)Cc1cc(C(C)(C)C)c(O)c(C(C)(C)C)c1", "outcome": "inactive"}
{"cpd-smiles": "COc1ccc(C(=O)c2ccccc2O)c(O)c1", "outcome": "inactive"}
{"cpd-smiles": "O=[N+]([O-])c1cc(S(=O)(=O)Nc2ccccc2)ccc1Nc1ccccc1", "outcome": "inactive"}
{"cpd-smiles": "COc1cc(CNC(=O)CCCC/C=C/C(C)C)ccc1O", "outcome": "inactive"}
{"cpd-smiles": "CCC[Si](OC(C)=O)(OC(C)=O)OC(C)=O", "outcome": "inactive"}

With those in mind, consider the next molecule.
Request: Form field: reported outcome of "Cc1c(C(N)=O)cc([N+](=O)[O-])cc1[N+](=O)[O-]"
Result: inactive

* * *

Read-out: Urokinase-type plasminogen activator receptor (uPAR), PLAUR (gene 5329)
Test: BSK_CASM3C_uPAR: BioMAP Diversity Plus: CASM3C Assay for Urokinase-type plasminogen activator receptor (uPAR) Biomarker Activity (AID 2283054);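 note: cell-surface uPAR protein level quantified by ELISA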
Details: primary human coronary artery smooth muscle cells; actives raise or lower the signal
Activity calls are given as the source filed them. How the source made its calls: active means hit-call score of the fitted dose curve at least 0.9, where 1 is the maximum; inactive means score below 0.9.
Your reply should match one of these outcome classes. 1 = active, -1 = inactive

Request: Assay result, entry "Cc1cc(-n2nc3ccc(Cl)cc3n2)c(O)c(C(C)(C)C)c1" — outcome?
Result: -1

Request: Assay result, entry CN(C)CCC(c1ccc(Cl)cc1)c1ccccn1 (stereo unspecified) — outcome?
Result: -1

Request: Assay result, entry CCCCCCCCCCC1CO1 (stereo unspecified) — outcome?
Result: 1

* * *

Assay: ATG_TA_CIS: Attagene CIS-FACTORIAL HepG2 Assay for human TA Basal Promoter (AID 2282964)
Conditions: HepG2 Attagene CIS-factorial TA basal promoter reporter; actives raise or lower the signal
Calls of active or inactive are those of the source. How the source made its calls: active means hit-call score of the fitted dose curve at least 0.9, where 1 is the maximum; inactive means score below 0.9.
Your reply should match one of these outcome classes. YES for active, NO for inactive

Here are 5 compounds together with their reported answers.
{"compound": "O=[N+]([O-])c1ccccc1C(F)(F)F", "category-label": "NO"}
{"compound": "NC(=O)c1ccc(N)cc1", "category-label": "NO"}
{"compound": "CCCCCCCCCCC1CO1 (configuration not stated)", "category-label": "YES"}
{"compound": "COC(OC)C(C)c1ccccc1 (configuration not stated)", "category-label": "NO"}
{"compound": "COC(=O)/C=C\\C(=O)OC", "category-label": "NO"}

Request: Assay result, entry "COc1c2occc2cc2ccc(=O)oc12" — outcome?
Result: NO

Request: Assay result, entry "CC/C=C/CCO" — outcome?
Result: NO

Request: Assay result, entry "CCCC(=O)OC" — outcome?
Result: NO

Request: Assay result, entry "CNC[C@H](O)[C@@H](O)[C@H](O)[C@H](O)CO" — outcome?
Result: NO

* * *

Read-out: Monocyte Chemoattractant Protein-1 (MCP1), CCL2 (gene 6347)
Test: BSK_CASM3C_MCP1: BioMAP Diversity Plus: CASM3C Assay for Monocyte Chemoattractant Protein-1 (MCP1) Biomarker Activity (AID 2283046);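 note: MCP-1 level quantified by ELISA 24 h after dosing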
Details: primary human coronary artery smooth muscle cells; actives raise or lower the signal
Activity calls are given as the source filed them. How the source made its calls: active means hit-call score of the fitted dose curve at least 0.9, where 1 is the maximum; inactive means score below 0.9.
Your reply should match one of these outcome classes. active, inactive

Here are 6 compounds together with their reported answers.
{"compound": "O=C(C(=O)c1ccccc1)c1ccccc1", "category-label": "inactive"}
{"compound": "CN(C)c1ccc(C(c2ccccc2)c2ccc(N(C)C)cc2)cc1", "category-label": "inactive"}
{"compound": "COC(=O)/C=C\\C(=O)OC", "category-label": "inactive"}
{"compound": "CCCCCCCCCCC1CO1 (configuration not stated)", "category-label": "active"}
{"compound": "CCCCC(CC)COC(=O)C=Cc1ccc(OC)cc1 (configuration not stated)", "category-label": "inactive"}
{"compound": "C1CN(CCOCCN2CCOCC2)CCO1", "category-label": "inactive"}

Request: Assay result, entry "COc1cc(CNC(=O)CCCC/C=C/C(C)C)ccc1O" — outcome?
Result: inactive

* * *

Read-out: Monocyte Chemoattractant Protein-1 (MCP1), CCL2 (gene 6347)
Test: BSK_4H_MCP1: BioMAP Diversity Plus: 4H Assay for Monocyte Chemoattractant Protein-1 (MCP1) Biomarker Activity (AID 2283018)
Conditions: primary human endothelial cells (HUVEC); actives raise or lower the signal
Calls of active or inactive are those of the source. The calls were made as follows: active = hit-call score of the fitted dose curve at least 0.9, where 1 is the maximum; inactive = score below 0.9.
Your reply should match one of these outcome classes. active, inactive

{"compound": "CC(C)CC(=O)CC(C)CC(C)C (stereo not drawn)", "category-label": "active"}

Request: Assay result, entry CC(C)C1OCCN1CCOC(=O)NCCCCCCNC(=O)OCCN1CCOC1C(C)C (stereo not drawn) — outcome?
Result: inactive

Request: Assay result, entry CCCCCCCCCCC1CO1 (stereo not drawn) — outcome?
Result: active

* * *

Test: BSK_LPS_SRB: Viability Assessment in the BioMAP Diversity Plus: LPS Assay (AID 2283079);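 note: total protein by sulforhodamine B absorbance as a cytotoxicity measure; measured one day after compound addition; fitted in both directions against DMSO so loss or gain of signal counts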
Conditions: primary human HUVEC with PBMC
Active and inactive are the calls of the source. The calls were made as follows: active = hit-call score of the fitted dose curve at least 0.9, where 1 is the maximum; inactive = score below 0.9.
Your reply should match one of these outcome classes. T (active), F (inactive)

{"compound": "Sc1nc2ccccc2s1", "category-label": "T"}
{"compound": "COc1ccccc1Oc1c(NS(=O)(=O)c2ccc(C(C)(C)C)cc2)nc(-c2ncccn2)nc1OCCO", "category-label": "F"}
{"compound": "Cc1cccnc1", "category-label": "F"}

Request: Assay result, entry CCCCCCC(O)CCCCCCCCCCC(=O)OC (centres undefined) — outcome?
Result: F

* * *

Molecular target: Cellular tumor antigen p53 (Homo sapiens)
Experiment: TOX21_p53_BLA_p2_ratio: Tox21 HCT-116 p53 Agonism Beta-lactamase Assay, Ratio, Phase 2 (AID 2283592)
Results filed as inconclusive are left out. Active and inactive are the calls of the source. Rule for the calls: active = hit-call score of the fitted dose curve at least 0.9, where 1 is the maximum; inconclusive = response in the unintended direction; inactive = score below 0.9.
Your reply should match one of these outcome classes. true (1) (active), false (0) (inactive)

{"molecule": "COC(=O)c1ccc(C(=O)O)cc1", "category-label": "false (0)"}
{"molecule": "Nc1ccc(C(=O)Nc2ccccc2N)cc1", "category-label": "true (1)"}
{"molecule": "O=c1[nH]c2cc(C(F)(F)F)c(N3CCOCC3)cc2n(CP(=O)(O)O)c1=O", "category-label": "false (0)"}
{"molecule": "CC(=O)Nc1ccn(C2COC(COC(=O)c3ccccc3)O2)c(=O)n1 (centres undefined)", "category-label": "true (1)"}
{"molecule": "CC[N+](CC)(CC)CCOc1ccc(/C=C/c2ccccc2)cc1", "category-label": "false (0)"}
{"molecule": "CC(CNC1CCCCC1)OC(=O)c1ccccc1 (centres undefined)", "category-label": "false (0)"}

Request: Assay result, entry "O=C(CO)[C@@H](O)[C@H](O)[C@H](O)CO" — outcome?
Result: false (0)

Request: Assay result, entry "CCN(CC)CCSC(=O)C(c1ccccc1)c1ccccc1" — outcome?
Result: false (0)

Request: Assay result, entry "O=S(=O)(O)CCCS(=O)(=O)O" — outcome?
Result: false (0)

Request: Assay result, entry "C[C@@H]1C[C@H]2[C@@H]3CCC4=CC(=O)C=C[C@]4(C)[C@@]3(F)[C@@H](O)C[C@]2(C)[C@@]1(O)C(=O)CO" — outcome?
Result: false (0)
